system-under-test: EGFR (Homo sapiens, UniProt P00533)
test-summary: SPR
pKd: −log10 of the molar value.
value-kind: pKd

binder	numeric-result
SFMPLSIPIMCKMLSKC [SC17-2]	6.83
